- Test system: Staphylococcus aureus
- measurement_protocol: Inhibition of multidrug resistance efflux pump in Staphylococcus aureus ATCC 29213 assessed as potentiation factor measured by reduction in weighted average of ciprofloxacin MIC by serial dilution method; further: test concentration or dose not given here
Activity calls are given as the source filed them. The calls are words filed in the database; no cut-off is given here.
measurement_name: PF

Solved cases below.
- compound: "CC(/C=C/C(=O)N1CCOCC1)=C\\c1ccc2c(c1)OCO2"
  tgt: "Staphylococcus aureus"
  val: "inactive"
- compound: "CCC(/C=C/C(=O)N1CCCCC1)=C\\c1ccc2c(c1)OCO2"
  tgt: "Staphylococcus aureus"
  val: 240
- compound: "CCCCC(/C=C/C(=O)N1CCN(C)CC1)=C\\c1ccc2c(c1)OCO2"
  tgt: "Staphylococcus aureus"
  val: 160
- compound: "CCOC(=O)/C=C/C(C)=C/c1ccc2c(c1)OCO2"
  tgt: "Staphylococcus aureus"
  val: "inactive"
- compound: "CCCC(/C=C/C(=O)O)=C\\c1ccc2c(c1)OCO2"
  tgt: "Staphylococcus aureus"
  val: "inactive"
- compound: "CCC(/C=C/C(=O)NCC(C)C)=C\\c1ccc2c(c1)OCO2"
  tgt: "Staphylococcus aureus"
  val: 270

# PF (compound: CCC(/C=N/C(CC)CO)=C\c1ccc2c(c1)OCO2 (configuration not stated) ) is 150

# PF (compound: "CCC(/C=C/C(=O)Nc1ccccc1C)=C\c1ccc2c(c1)OCO2" ) is 60

# PF (compound: "CCCC(/C=C/C(=O)N1CCN(C)CC1)=C\c1ccc2c(c1)OCO2" ) is 60

# PF (compound: CC(/C=C/C(=O)NC(C)c1ccc(Br)cc1)=C\c1ccc2c(c1)OCO2 (configuration not stated) ) is 380

# PF (compound: "CCCC(/C=C/C(=O)N1CCN(C)CC1)=C\c1ccc(OC)cc1" ) is 130

# PF (compound: CCC(/C=C/C(=O)NC(C)C=O)=C\c1ccc2c(c1)OCO2 (configuration not stated) ) is 30

# PF (compound: CC(/C=C/C(=O)N1CCCC1)=C\c1ccc2c(c1)OCO2 (stereo in doubt; 3) ) is 110

# PF (compound: "COc1cc(/C=C(C)/C=C/C(=O)N2CCCCC2)ccc1O" ) is 10

---

- Tested on: Staphylococcus aureus
- measurement_protocol: Inhibition of multidrug resistance efflux pump in Staphylococcus aureus ATCC 29213 assessed as potentiation factor measured by reduction in weighted average of ciprofloxacin MIC by serial dilution method; further: test concentration or dose not given here
measurement_name: PF

Solved cases below.
- compound: "CCC(/C=C/C(=O)Nc1ccccc1)=C\\c1ccccc1"
  PF: 210
- compound: "CCC(/C=C/C(=O)N1CCN(C)CC1)=C\\c1ccc2c(c1)OCO2"
  PF: 130
- compound: "CCC(/C=C/C(=O)N1CCCC1)=C\\c1ccc2c(c1)OCO2"
  PF: 90
- compound: "CC(/C=C/C(=O)N1CCCCC1)=C\\c1ccc2c(c1)OCO2"
  PF: 180
- compound: "CCCCCCC(/C=C/C(=O)N1CCCCC1)=C\\c1ccc(OC)cc1"
  PF: 130

# PF (compound: "CCCCC(/C=N/c1ccccc1C(=O)O)=C\c1ccc(OC)cc1" ) is 100

# PF (compound: "O=C(/C=C/C=C/c1ccc2c(c1)OCCO2)N1CCOCC1" ) is 40

# PF (compound: "CCC(/C=C/C(=O)N[C@@](C)(O)c1ccccc1)=C\c1ccc2c(c1)OCO2" ) is 30

# PF (compound: "CCC(/C=C/C(=O)O)=C\c1ccc2c(c1)OCO2" ) is 10
